- test-system: NEK7 (Homo sapiens (Human), UniProt Q8TDX7+Q96SW2)
- Sequence (Q8TDX7 whole entry): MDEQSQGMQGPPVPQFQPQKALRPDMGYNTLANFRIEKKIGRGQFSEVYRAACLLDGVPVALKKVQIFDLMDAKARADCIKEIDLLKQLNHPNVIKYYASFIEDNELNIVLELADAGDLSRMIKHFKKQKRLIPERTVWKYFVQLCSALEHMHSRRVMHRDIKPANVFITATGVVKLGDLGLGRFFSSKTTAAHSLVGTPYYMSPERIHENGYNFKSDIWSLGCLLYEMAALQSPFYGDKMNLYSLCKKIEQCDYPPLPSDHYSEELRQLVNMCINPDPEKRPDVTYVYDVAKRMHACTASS
- Sequence (Q96SW2 whole entry): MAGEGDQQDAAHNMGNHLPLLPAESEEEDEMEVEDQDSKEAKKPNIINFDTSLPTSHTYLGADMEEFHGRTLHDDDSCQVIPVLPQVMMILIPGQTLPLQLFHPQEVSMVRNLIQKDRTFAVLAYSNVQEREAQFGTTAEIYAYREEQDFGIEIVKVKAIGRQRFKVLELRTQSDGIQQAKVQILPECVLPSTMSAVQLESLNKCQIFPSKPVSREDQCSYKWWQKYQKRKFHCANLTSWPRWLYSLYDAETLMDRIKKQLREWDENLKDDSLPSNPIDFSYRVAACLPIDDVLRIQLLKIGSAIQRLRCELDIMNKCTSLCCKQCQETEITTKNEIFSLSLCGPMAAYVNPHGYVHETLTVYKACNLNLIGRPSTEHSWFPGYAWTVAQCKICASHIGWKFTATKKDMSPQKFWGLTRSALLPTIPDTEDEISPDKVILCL
- Sequence (Q16531 2-1140 partner): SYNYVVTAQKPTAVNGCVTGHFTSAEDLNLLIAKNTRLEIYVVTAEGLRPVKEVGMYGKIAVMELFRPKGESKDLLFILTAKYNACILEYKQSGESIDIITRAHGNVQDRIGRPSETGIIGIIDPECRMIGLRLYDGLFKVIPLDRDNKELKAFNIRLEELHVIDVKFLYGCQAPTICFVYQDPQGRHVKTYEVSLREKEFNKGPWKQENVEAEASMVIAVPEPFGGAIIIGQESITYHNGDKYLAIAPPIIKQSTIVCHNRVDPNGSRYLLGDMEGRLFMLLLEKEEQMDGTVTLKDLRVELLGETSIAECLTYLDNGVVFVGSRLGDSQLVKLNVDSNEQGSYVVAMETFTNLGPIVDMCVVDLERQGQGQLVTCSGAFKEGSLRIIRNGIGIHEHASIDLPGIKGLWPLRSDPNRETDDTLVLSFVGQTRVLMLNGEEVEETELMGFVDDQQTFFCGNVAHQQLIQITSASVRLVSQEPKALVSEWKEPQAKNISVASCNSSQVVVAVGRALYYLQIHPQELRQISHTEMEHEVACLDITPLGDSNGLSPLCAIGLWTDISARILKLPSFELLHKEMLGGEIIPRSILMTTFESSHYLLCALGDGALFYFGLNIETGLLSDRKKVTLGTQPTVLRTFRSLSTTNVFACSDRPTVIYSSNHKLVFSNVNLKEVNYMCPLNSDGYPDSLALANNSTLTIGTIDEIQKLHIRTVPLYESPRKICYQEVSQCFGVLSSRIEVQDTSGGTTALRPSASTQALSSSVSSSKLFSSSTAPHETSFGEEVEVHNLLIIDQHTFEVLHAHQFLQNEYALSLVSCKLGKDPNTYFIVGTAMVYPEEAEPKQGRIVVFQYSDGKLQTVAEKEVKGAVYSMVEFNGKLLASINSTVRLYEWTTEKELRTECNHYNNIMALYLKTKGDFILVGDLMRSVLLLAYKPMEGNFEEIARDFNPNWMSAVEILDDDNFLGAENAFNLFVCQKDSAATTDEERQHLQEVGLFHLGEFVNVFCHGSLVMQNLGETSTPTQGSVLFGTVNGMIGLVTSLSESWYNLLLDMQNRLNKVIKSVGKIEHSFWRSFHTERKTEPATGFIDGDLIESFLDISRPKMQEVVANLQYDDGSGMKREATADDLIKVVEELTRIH
- assay-procedure: NEK7 NanoBiT degradation assay in Cal51 NEK7 NanoBiT cell line
- Type: cell-based
- test-context: NEK7 degradation, Cal51 NEK7 NanoBiT cells, 24 hours; read-out: NanoBiT DC50
# DC50 per entry

| molecule | DC50 |
| --- | --- |
| CC(C)(C(=O)NCc1cc(Cl)c(C2CCC(=O)NC2=O)c(Cl)c1)c1ccc(C#N)cn1 (stereo not shown) | ≤ 100 nM |
| CC(C)(C(=O)NCc1cc(Cl)c(C2CCC(=O)NC2=O)c(Cl)c1)c1nc(C(F)F)no1 (stereo not shown) | ≤ 100 nM |
| CC(C)(C(=O)NCc1cc(F)c(C2CCC(=O)NC2=O)c(Cl)c1)c1nc2ccccc2o1 (stereo not shown) | ≤ 100 nM |
| CC(C)(C(=O)NCc1cc(Cl)c(C2CCC(=O)NC2=O)c(Cl)c1)c1ccc2nccnc2c1 (stereo not shown) | ≤ 100 nM |
| Cc1coc(C(C)(C)C(=O)NCc2cc(F)c(C3CCC(=O)NC3=O)c(Cl)c2)n1 (stereo not shown) | 100 to 1000 nM |
| Cc1ocnc1C(C)(C)C(=O)NCc1cc(Cl)c(C2CCC(=O)NC2=O)c(Cl)c1 (stereo not shown) | ≤ 100 nM |
| Cn1ncc2ccc(C(C)(C)C(=O)NCc3cc(Cl)c(C4CCC(=O)NC4=O)c(Cl)c3)cc21 (stereo not shown) | ≤ 100 nM |
| CC(F)(F)c1cnc(C(C)(C)C(=O)NCc2cc(Cl)c(C3CCC(=O)NC3=O)c(Cl)c2)nc1 (stereo not shown) | ≤ 100 nM |
| COc1ccc(C(C)(C)C(=O)NCc2cc(F)c(C3CCC(=O)NC3=O)c(Cl)c2)nc1 (stereo not shown) | ≤ 100 nM |
| CC(C)(C(=O)NCc1cc(Cl)c(C2CCC(=O)NC2=O)c(Cl)c1)c1ncc(N2CCC2)cn1 (stereo not shown) | ≤ 100 nM |
| CC(C)(C(=O)NCc1ccc(C2CCC(=O)NC2=O)c(Cl)c1)c1cccc(F)c1 (stereo not shown) | ≤ 100 nM |
| COCc1ccnc(C(C)(C)C(=O)NCc2cc(Cl)c(C3CCC(=O)NC3=O)c(Cl)c2)n1 (stereo not shown) | 100 to 1000 nM |
| O=C1CCC(c2c(Cl)cc(CNC(=O)C3(c4ncccn4)CCC3)cc2Cl)C(=O)N1 (stereo not shown) | ≤ 100 nM |
| O=C1CCC(c2c(Cl)cc(CNC(=O)C3(c4ccncc4)CCC3)cc2Cl)C(=O)N1 (stereo not shown) | ≤ 100 nM |
| CC(C)(C(=O)NCc1cc(Cl)c(C2CCC(=O)NC2=O)c(Cl)c1)c1ccn(CC(F)(F)F)c(=O)c1 (stereo not shown) | ≤ 100 nM |
| CC(C)(C(=O)NCc1cc(Cl)c(C2CCC(=O)NC2=O)c(Cl)c1)c1nccc(C2CC2)n1 (stereo not shown) | 100 to 1000 nM |
| Cc1cc(C(C)(C)C(=O)NCc2cc(Cl)c(C3CCC(=O)NC3=O)c(Cl)c2)no1 (stereo not shown) | ≤ 100 nM |
| CC(C)(C(=O)NCc1cc(Cl)c(C2CCC(=O)NC2=O)c(Cl)c1)c1cnc2ncsc2c1 (stereo not shown) | ≤ 100 nM |
| CC(C)(C(=O)NCc1cc(Cl)c(C2CCC(=O)NC2=O)c(Cl)c1)c1cnc(OC(F)F)cn1 (stereo not shown) | ≤ 100 nM |
| CC(C)(C(=O)NCc1cc(Cl)c(C2CCC(=O)NC2=O)c(Cl)c1)c1cscn1 (stereo not shown) | 100 to 1000 nM |
| CC(C)(C(=O)NCc1cc(Cl)c(C2CCC(=O)NC2=O)c(Cl)c1)c1cc(C(F)(F)F)on1 (stereo not shown) | ≤ 100 nM |
| CC(C)(C(=O)NCc1cc(Cl)c(C2CCC(=O)NC2=O)c(Cl)c1)c1ncc(C(F)(F)F)cn1 (stereo not shown) | ≤ 100 nM |
| CC(C)(C(=O)NCc1cc(Cl)c(C2CCC(=O)NC2=O)c(Cl)c1)c1ccc(C(N)=O)cc1 (stereo not shown) | ≤ 100 nM |
| CC(C)(C(=O)NCc1cc(Cl)c(C2CCC(=O)NC2=O)c(Cl)c1)c1ccccc1F (stereo not shown) | ≤ 100 nM |
| Cc1nc(CNC(=O)C(C)(C)c2ccccc2)cc(Cl)c1C1CCC(=O)NC1=O (stereo not shown) | 100 to 1000 nM |

----------
Attribute: DC50
- test-system: NEK7 (Homo sapiens (Human), UniProt Q8TDX7+Q96SW2)
- assay-procedure: NEK7 NanoBiT degradation assay in Cal51 NEK7 NanoBiT cell line
- Format: cell-based
- test-context: Cal51 NEK7 NanoBiT cells, 24 hours; read-out: NEK7 NanoBiT DC50
quantity: DC50 (nM)

| molecule | readout-value |
| --- | --- |
| CC1(C(=O)NCc2ccc(C3CCC(=O)NC3=O)c(Cl)c2)CCc2ccccc2C1 (stereo not shown) [Compound 102] | 51 |
| CC(C)(C(=O)NCc1cc(Cl)c(C2CCC(=O)NC2=O)c(Cl)c1)c1ccc(C(F)F)cn1 (stereo not shown) [Compound 4] | 3 |
| Cn1ccc(C(C)(C)C(=O)NCc2cc(Cl)c(C3CCC(=O)NC3=O)c(Cl)c2)cc1=O (stereo not shown) [Compound 75] | 14 |
| CC(C)(C(=O)NCc1cc(Cl)c(C2CCC(=O)NC2=O)c(Cl)c1)c1ccc(S(N)(=O)=O)cc1 (stereo not shown) [Compound 76] | 2 |
| CC(C)(C(=O)NCc1cc(Cl)c(C2CCC(=O)NC2=O)c(Cl)c1)c1ccn2ccnc2c1 (stereo not shown) [Compound 55] | 1 |
| CC(C)(C(=O)NCc1cc(Cl)c(C2CCC(=O)NC2=O)c(Cl)c1)c1ncncc1F (stereo not shown) [Compound 8] | 6 |
| Cc1nccc(C(C)(C)C(=O)NCc2cc(Cl)c(C3CCC(=O)NC3=O)c(Cl)c2)n1 (stereo not shown) [Compound 150] | 91 |
| Cc1noc(C(C)(C)C(=O)NCc2cc(Cl)c(C3CCC(=O)NC3=O)c(Cl)c2)n1 (stereo not shown) [Compound 164] | 66 |
| CC1(C(=O)NCc2cc(Cl)c(C3CCC(=O)NC3=O)c(Cl)c2)COc2ccccc2C1 (stereo not shown) [Compound 38] | 6 |
| CC(C)(C(=O)NCc1cc(Cl)c(C2CCC(=O)NC2=O)c(Cl)c1)c1cnc(F)nc1 (stereo not shown) [Compound 5] | 133 |

----------
- test-system: UniProt Q96SW2
- Sequence (Q16531 whole entry partner, one chain of several): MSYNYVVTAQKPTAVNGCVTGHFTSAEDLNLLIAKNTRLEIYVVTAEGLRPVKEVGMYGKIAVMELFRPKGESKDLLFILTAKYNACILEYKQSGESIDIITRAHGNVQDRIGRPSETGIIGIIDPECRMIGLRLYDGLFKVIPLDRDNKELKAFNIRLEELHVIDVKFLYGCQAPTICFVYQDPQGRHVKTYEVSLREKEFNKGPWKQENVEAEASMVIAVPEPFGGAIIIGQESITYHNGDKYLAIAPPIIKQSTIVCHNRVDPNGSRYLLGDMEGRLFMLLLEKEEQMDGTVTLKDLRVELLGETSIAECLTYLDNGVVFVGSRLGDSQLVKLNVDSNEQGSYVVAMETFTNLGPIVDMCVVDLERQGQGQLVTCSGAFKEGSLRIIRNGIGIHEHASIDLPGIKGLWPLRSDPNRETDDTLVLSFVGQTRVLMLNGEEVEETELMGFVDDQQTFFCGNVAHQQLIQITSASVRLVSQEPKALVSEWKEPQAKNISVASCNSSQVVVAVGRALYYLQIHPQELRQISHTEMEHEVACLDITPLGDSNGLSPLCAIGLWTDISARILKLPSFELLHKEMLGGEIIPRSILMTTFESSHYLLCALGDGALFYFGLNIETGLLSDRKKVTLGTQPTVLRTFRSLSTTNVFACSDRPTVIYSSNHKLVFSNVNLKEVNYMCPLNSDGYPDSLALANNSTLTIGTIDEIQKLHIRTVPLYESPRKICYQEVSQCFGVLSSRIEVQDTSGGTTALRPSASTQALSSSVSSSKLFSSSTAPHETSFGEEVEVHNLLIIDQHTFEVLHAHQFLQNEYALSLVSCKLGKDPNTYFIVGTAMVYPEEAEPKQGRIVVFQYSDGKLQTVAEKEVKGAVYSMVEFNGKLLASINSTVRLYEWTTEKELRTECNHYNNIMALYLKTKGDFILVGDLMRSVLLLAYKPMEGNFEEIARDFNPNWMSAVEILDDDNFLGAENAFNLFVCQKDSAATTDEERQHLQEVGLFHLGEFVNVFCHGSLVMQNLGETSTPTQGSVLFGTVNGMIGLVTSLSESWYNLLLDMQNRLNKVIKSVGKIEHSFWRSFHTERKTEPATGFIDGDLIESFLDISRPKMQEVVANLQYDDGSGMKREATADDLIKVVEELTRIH
- assay-procedure: Compound binding to CRBN by HTRF assay
- test-context: HTRF class; Cereblon binding

| molecule | EC50 |
| --- | --- |
| COc1nc(C(C)(C)C(=O)NCc2cc(Cl)c(C3CCC(=O)NC3=O)c(Cl)c2)ncc1C (stereo not drawn) | ≤ 100 nM |
| [2H]C([2H])([2H])C(C(=O)NCc1cc(Cl)c(C2CCC(=O)NC2=O)c(Cl)c1)(c1ncc(C)cn1)C([2H])([2H])[2H] (stereo not drawn) | 100 to 1000 nM |
| CC(C)(C(=O)NCc1cc(Cl)c(C2CCC(=O)NC2=O)c(Cl)c1)c1ccns1 (stereo not drawn) | ≤ 100 nM |
| CC(C)(C(=O)NCc1ccc(C2CCC(=O)NC2=O)c(Cl)c1)c1nc2ccccc2o1 (stereo not drawn) | 100 to 1000 nM |
| CC(C)(C(=O)NCc1cc(Cl)c(C2CCC(=O)NC2=O)c(Cl)c1)c1ncc(N2CCC2)cn1 (stereo not drawn) | 100 to 1000 nM |
| O=C1CCC(c2c(Cl)cc(CNC(=O)C3(c4ccc5[nH]ncc5c4)CCOCC3)cc2Cl)C(=O)N1 (stereo not drawn) | ≤ 100 nM |
| CC(C)(C(=O)NCc1ccc(C2CCC(=O)NC2=O)c(Br)c1)c1ccc(F)cc1 (stereo not drawn) | 100 to 1000 nM |
| CC(C)(C(=O)NCc1cc(Cl)c([C@@]2(F)CCC(=O)NC2=O)c(Cl)c1)c1ccccc1 (single isomer, unassigned) | > 1000 nM |
| CC(C)(C(=O)NCc1cc(Cl)c(C2CCC(=O)NC2=O)c(Cl)c1)c1cnc(F)nc1 (stereo not drawn) | 100 to 1000 nM |
| CC(C)(C(=O)NCc1cc(F)c(C2CCC(=O)NC2=O)c(Cl)c1)c1cc(F)ccn1 (stereo not drawn) | 100 to 1000 nM |
| CC(C)(C(=O)NCc1cc(Cl)c(C2CCC(=O)NC2=O)c(Cl)c1)c1ccc(S(C)(=O)=O)cc1 (stereo not drawn) | ≤ 100 nM |
| CC(C)(C(=O)NCc1cc(Cl)c(C2CCC(=O)NC2=O)c(Cl)c1)c1cc(C(F)(F)F)on1 (stereo not drawn) | 100 to 1000 nM |
| CC(C)(C(=O)NCc1cc(Cl)c(C2CCC(=O)NC2=O)c(Cl)c1)c1ncc(C(F)(F)F)cn1 (stereo not drawn) | 100 to 1000 nM |
| CC(C)(C(=O)NCc1cc(Cl)c(C2CCC(=O)NC2=O)c(Cl)c1)c1ccc(F)cn1 (stereo not drawn) | 100 to 1000 nM |
| CC(C)(C(=O)NCc1cc(Cl)c(C2CCC(=O)NC2=O)c(Cl)c1)c1ccc2nccnc2c1 (stereo not drawn) | ≤ 100 nM |
| CC(C)(C(=O)NCc1cc(Cl)c(C2CCC(=O)NC2=O)c(Cl)c1)c1nc(C(F)F)no1 (stereo not drawn) | ≤ 100 nM |
| CC(C)(C(=O)NCc1cc(F)c(C2CCC(=O)NC2=O)c(Cl)c1)c1nocc1C(F)(F)F (stereo not drawn) | 100 to 1000 nM |
| Cn1ncc(C(C)(C)C(=O)NCc2cc(Cl)c(C3CCC(=O)NC3=O)c(Cl)c2)cc1=O (stereo not drawn) | 100 to 1000 nM |

meta.source: patent US20250243180A1
